Provenance of the data: ChEMBL document CHEMBL3769368

Protocol notes: Antiproliferative activity against human alpha-2 cells after 48 hrs by MTT assay
Type: functional, cell-based
Assay metric: pIC50
# log scale: pIC50 equals minus log10 of the concentration in mol/L

Test smiles | pIC50
CC[C@H](C)[C@H](NC(=O)OC(C)(C)C)C(=O)O[C@@H]1C[C@@H]2[C@@]3(C)CC[C@H](O)C(C)(C)[C@@H]3CC[C@@]2(C)[C@]2(C)CC[C@H]([C@](C)(O)CCCC(C)(C)O)[C@@H]12 | 4.09

Field: next molecule
Enquiry: Give the measured pIC50 for O=c1[nH]cc(F)c(=O)[nH]1
Return: 4.48

----------
Protocol notes: Antiproliferative activity against human alpha-2 cells after 48 hrs by MTT assay
Type: functional, cell-based
Assay metric: pIC50
# log scale: pIC50 equals minus log10 of the concentration in mol/L

Test smiles | pIC50
CC(C)(O)CCC[C@@](C)(O)[C@H]1CC[C@]2(C)[C@@H]1[C@H](O)C[C@@H]1[C@@]3(C)CC[C@H](OC(=O)[C@@H](N)Cc4cnc[nH]4)C(C)(C)[C@@H]3CC[C@]12C | 4.96
CC(C)(O)CCC[C@@](C)(O)[C@H]1CC[C@]2(C)[C@@H]1[C@H](O)C[C@@H]1[C@@]3(C)CC[C@H](OC(=O)[C@@H](N)CCC(=O)O)C(C)(C)[C@@H]3CC[C@]12C | 5.21
CC(C)(O)CCC[C@@](C)(O)[C@H]1CC[C@]2(C)[C@@H]1[C@H](OC(=O)[C@H](Cc1cnc[nH]1)NC(=O)OC(C)(C)C)C[C@@H]1[C@@]3(C)CC[C@H](O)C(C)(C)[C@@H]3CC[C@]12C | 4.14
C[C@H](NC(=O)OC(C)(C)C)C(=O)O[C@@H]1C[C@@H]2[C@@]3(C)CC[C@H](O)C(C)(C)[C@@H]3CC[C@@]2(C)[C@]2(C)CC[C@H]([C@](C)(O)CCCC(C)(C)O)[C@@H]12 | 4.47
C[C@H](N)C(=O)O[C@@H]1C[C@@H]2[C@@]3(C)CC[C@H](O)C(C)(C)[C@@H]3CC[C@@]2(C)[C@]2(C)CC[C@H]([C@](C)(O)CCCC(C)(C)O)[C@@H]12 | 5.04

Enquiry: Give the measured pIC50 for C[C@@H](O)[C@H](NC(=O)OC(C)(C)C)C(=O)O[C@H]1CC[C@]2(C)[C@H]3C[C@@H](O)[C@@H]4[C@@H]([C@](C)(O)CCCC(C)(C)O)CC[C@@]4(C)[C@]3(C)CC[C@H]2C1(C)C
Return: 4.62

Enquiry: Give the measured pIC50 for CC(C)C[C@H](NC(=O)OC(C)(C)C)C(=O)O[C@H]1CC[C@]2(C)[C@H]3C[C@@H](OC(=O)[C@H](CC(C)C)NC(=O)OC(C)(C)C)[C@@H]4[C@@H]([C@](C)(O)CCCC(C)(C)O)CC[C@@]4(C)[C@]3(C)CC[C@H]2C1(C)C
Return: 4.14
